Observation Type: IC50 (nM)
Only the number, expressed in nM, is required.

**Query** For the record Cc1nc(N2CC3C(C2)C3(F)F)ncc1Cn1cnc(C(=O)N[C@@H]2CCc3c2n[nH]c3C)c1 (some centres unmarked) [Example 92] , what value of IC50 is listed for Human PKK (Homo sapiens (Human))?
**Result** 1

**Query** For the record Cc1nc(N2CC3C(C2)C3(C)C)ccc1Cn1cc(C(=O)N[C@@H]2CCc3c2n[nH]c3C)cn1 (some centres unmarked) [Example 80] , what value of IC50 is listed for Human PKK (Homo sapiens (Human))?
**Result** 9

**Query** For the record Cc1nc(N2CC3(CC3)C2)ncc1Cn1cc(C(=O)N[C@@H]2CCc3c(C)n[nH]c32)c2cncnc21 [Example 33] , what value of IC50 is listed for Human PKK (Homo sapiens (Human))?
**Result** 3

**Query** For the record Cc1nc(N2CC3CC3C2)ncc1Cn1cc(C(=O)N[C@@H]2CCc3c(C)n[nH]c32)c2cncnc21 (some centres unmarked) [Example 23] , what value of IC50 is listed for Human PKK (Homo sapiens (Human))?
**Result** 2

**Query** For the record Cc1nc(N2CC3CC(C2)O3)ccc1Cn1cc(C(=O)N[C@@H]2CCc3c2n[nH]c3C)cn1 [Example 64] , what value of IC50 is listed for Human PKK (Homo sapiens (Human))?
**Result** 32

====

The following molecules each carry a recorded pIC50 for Human PKK (Homo sapiens (Human)).
pIC50 is a log-scale quantity: -log10 of the concentration expressed in molar.

**Query** Entry under review: `Cc1[nH]nc2c1CC[C@H]2NC(=O)c1cn(Cc2ccc(N3CC4(CC4)C3)nc2)cn1` . Reported pIC50?
**Result** 8.52

**Query** Entry under review: Cc1nc(N2CC3CC3C2)ccc1Cn1cc(C(=O)N[C@@H]2CCc3c2n[nH]c3C)c2cc(C(=O)O)ccc21 (some centres unmarked) . Reported pIC50?
**Result** 9.00

**Query** Entry under review: Cc1nc(N2CC3CC3C2)ccc1Cn1cc(C(=O)N[C@@H]2CCc3c(C)n[nH]c32)cn1 (some centres unmarked) . Reported pIC50?
**Result** 9.10

**Query** Entry under review: Cc1nc(N2CC3CC3C2)ccc1Cc1c[nH]c(C(=O)N[C@@H]2CCc3c(C)n[nH]c32)c1 (some centres unmarked) . Reported pIC50?
**Result** 9.00

**Query** Entry under review: Cc1nc(N2CC3CC3C2)ncc1Cn1cc(C(=O)N[C@@H]2CCc3c(C)n[nH]c32)c(C)n1 (some centres unmarked) . Reported pIC50?
**Result** 8.52

**Query** Entry under review: `Cc1nc(N2CC(C#N)C2)ccc1Cn1cc(C(=O)N[C@@H]2CCc3c2n[nH]c3C)cn1` . Reported pIC50?
**Result** 7.43

**Query** Entry under review: Cc1nc(N2CC3C(C2)C3(F)F)ncc1Cn1cc(C(=O)N[C@@H]2CCc3c(C)n[nH]c32)c2cncnc21 (some centres unmarked) . Reported pIC50?
**Result** 9.00

**Query** Entry under review: Cc1nc(N2CC3CC3C2)ccc1Cc1csc(C(=O)N[C@@H]2CCc3c(C)n[nH]c32)c1 (some centres unmarked) . Reported pIC50?
**Result** 9.15

====

target: Human PKK (Homo sapiens (Human), UniProt P03952)
Sequence (P03952 391-638): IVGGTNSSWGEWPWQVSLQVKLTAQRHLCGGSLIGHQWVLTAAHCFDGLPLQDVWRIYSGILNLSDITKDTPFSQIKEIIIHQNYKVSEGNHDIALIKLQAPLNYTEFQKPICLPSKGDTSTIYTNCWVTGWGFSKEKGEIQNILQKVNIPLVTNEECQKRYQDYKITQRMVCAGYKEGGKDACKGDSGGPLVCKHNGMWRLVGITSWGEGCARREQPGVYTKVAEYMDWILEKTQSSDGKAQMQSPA
Sequence (P03952 20-390 partner): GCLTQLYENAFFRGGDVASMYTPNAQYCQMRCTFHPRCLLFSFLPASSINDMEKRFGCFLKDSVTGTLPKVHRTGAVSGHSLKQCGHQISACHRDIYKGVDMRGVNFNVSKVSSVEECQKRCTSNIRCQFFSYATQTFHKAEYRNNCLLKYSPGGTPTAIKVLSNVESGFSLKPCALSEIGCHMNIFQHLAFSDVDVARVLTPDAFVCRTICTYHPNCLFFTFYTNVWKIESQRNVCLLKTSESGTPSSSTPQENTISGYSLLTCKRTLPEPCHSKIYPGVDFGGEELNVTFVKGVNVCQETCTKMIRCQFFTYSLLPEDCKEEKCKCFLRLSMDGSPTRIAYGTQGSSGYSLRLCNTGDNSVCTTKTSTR
Could you please report measured log10 Ki for the items listed next?
Quick note: numbers are log10 of Ki, with nM as the unit.

**Query** Entry under review: Cc1nc(N2CC3CC3C2)ccc1Cn1cc(C(=O)NC2CCc3c(C)n[nH]c32)cn1 (centres unmarked) . Reported log10 Ki?
**Result** 0.00

**Query** Entry under review: `Cc1nc(N2C[C@@H]3[C@H](C)[C@@H]3C2)ccc1Cn1cnc(C(=O)N[C@@H]2CCc3c2n[nH]c3C)c1` . Reported log10 Ki?
**Result** -0.10

**Query** Entry under review: `COCc1nn(Cc2ccc(N3CC4(CC4)C3)nc2C)cc1C(=O)N[C@@H]1CCc2c(C)n[nH]c21` . Reported log10 Ki?
**Result** -1.00

**Query** Entry under review: Cc1nc(N2CC3CC3C2)ccc1Cn1cc(C(=O)N[C@@H]2CCc3c(C)n[nH]c32)c(Cl)n1 (some centres unmarked) . Reported log10 Ki?
**Result** 0.30

**Query** Entry under review: Cc1nc(N2CCC(C(F)F)C2)ccc1Cn1cc(C(=O)N[C@@H]2CCc3c2n[nH]c3C)cn1 (some centres unmarked) . Reported log10 Ki?
**Result** 0.00

**Query** Entry under review: Cc1nc(N2CC3CC3C2)ccc1Cc1c[nH]c(C(=O)N[C@@H]2CCc3c(C)n[nH]c32)c1 (some centres unmarked) . Reported log10 Ki?
**Result** -0.15

**Query** Entry under review: `Cc1[nH]nc2c1CC[C@H]2NC(=O)c1cn(Cc2ccc(N3CC4(CC4)C3)nc2)cn1` . Reported log10 Ki?
**Result** 0.48

**Query** Entry under review: Cc1nc(N2CCC(C)(C#N)C2)ccc1Cn1cc(C(=O)N[C@@H]2CCc3c2n[nH]c3C)cn1 (some centres unmarked) . Reported log10 Ki?
**Result** 0.00

**Query** Entry under review: Cc1nc(N2CC3C(C2)C3(F)F)ncc1Cn1cc(C(=O)N[C@@H]2CCc3c(C)n[nH]c32)c2cncnc21 (some centres unmarked) . Reported log10 Ki?
**Result** -1.00

**Query** Entry under review: Cc1nc(N2CC3C(C2)C3(F)F)ccc1Cn1cc(C(=O)N[C@@H]2CCc3c(C)n[nH]c32)c2cncnc21 (some centres unmarked) . Reported log10 Ki?
**Result** -1.00

**Query** Entry under review: Cc1nc(N2CC3CC3C2)ccc1Cn1cc(C(=O)N[C@@H]2CCc3c(C)n[nH]c32)cn1 (some centres unmarked) . Reported log10 Ki?
**Result** -0.30

**Query** Entry under review: `Cc1nc(N2CCC(C)(C)C2)ccc1Cn1cc(C(=O)N[C@@H]2CCc3c2n[nH]c3C)cn1` . Reported log10 Ki?
**Result** -0.05

**Query** Entry under review: `Cc1nc(N2CCC(F)(F)C2)ccc1Cn1cc(C(=O)N[C@@H]2CCc3c2n[nH]c3C)cn1` . Reported log10 Ki?
**Result** 0.30

**Query** Entry under review: COc1nn(Cc2ccc(N3CC4CC4C3)nc2C)cc1C(=O)N[C@@H]1CCc2c(C)n[nH]c21 (some centres unmarked) . Reported log10 Ki?
**Result** -0.70

**Query** Entry under review: `Cc1nc(N2CC3(CCC3)C2)ccc1Cn1cc(C(=O)N[C@@H]2CCc3c2n[nH]c3C)cn1` . Reported log10 Ki?
**Result** 0.00

**Query** Entry under review: COCc1nn(Cc2ccc(N3CC4CC4C3)nc2C)cc1C(=O)N[C@@H]1CCc2c(C)n[nH]c21 (some centres unmarked) . Reported log10 Ki?
**Result** -1.00

**Query** Entry under review: Cc1nc(N2CC3CC3C2)ccc1Cn1cc(C(=O)N[C@@H]2CCc3c2n[nH]c3C)c2cc(C(=O)O)ccc21 (some centres unmarked) . Reported log10 Ki?
**Result** 0.78

**Query** Entry under review: Cc1nc(N2CC3CC3C2)ncc1Cn1cc(C(=O)N[C@@H]2CCc3c(C)n[nH]c32)c2cncnc21 (some centres unmarked) . Reported log10 Ki?
**Result** -0.52

**Query** Entry under review: Cc1nc(N2CC3CC3C2)ncc1Cn1cc(C(=O)N[C@@H]2CCc3c(C)n[nH]c32)nn1 (some centres unmarked) . Reported log10 Ki?
**Result** 0.00

**Query** Entry under review: Cc1nc(N2CC3CC3C2)ccc1Cn1cc(C(=O)N[C@@H]2CCc3c2n[nH]c3C)nc1C (some centres unmarked) . Reported log10 Ki?
**Result** 0.00

====

biological target: PKK in kaolin activated human platelet poor plasma (Homo sapiens (Human)); test: Inhibition of PKK in kaolin activated human PPP; assay type: biochemical; details: global fit over 25, 75, 250, 750 μg/mL kaolin
Sequence (P03952 391-638): as the sequence (P03952 391-638) above
Sequence (P03952 20-390 partner): as the sequence (P03952 20-390 partner) above
Could you please report measured IC90 for the items listed next?
Only the number, expressed in nM, is required.

**Query** For the record Cc1nc(N2CC3CC3C2)ccc1Cn1cc(C(=O)NC2CCc3c(C)n[nH]c32)cn1 (stereo not shown) , what value of IC90 is listed for PKK in kaolin activated human platelet poor plasma (Homo sapiens (Human))?
**Result** 705

**Query** For the record `Cc1[nH]nc2c1CC[C@H]2NC(=O)c1cn(Cc2ccc(N3CC4(CC4)C3)nc2)cn1` , what value of IC90 is listed for PKK in kaolin activated human platelet poor plasma (Homo sapiens (Human))?
**Result** 444

**Query** For the record Cc1nc(N2C[C@@H]3[C@H](CO)[C@@H]3C2)ccc1Cn1cnc(C(=O)N[C@@H]2CCc3c2n[nH]c3C)c1 (stereo in doubt) , what value of IC90 is listed for PKK in kaolin activated human platelet poor plasma (Homo sapiens (Human))?
**Result** 388

**Query** For the record `Cc1nc(N2CC(C)(C)C2)ccc1Cn1cc(C(=O)N[C@@H]2CCc3c2n[nH]c3C)cn1` , what value of IC90 is listed for PKK in kaolin activated human platelet poor plasma (Homo sapiens (Human))?
**Result** 545
